system: NCI-H460 lung; test: NCI tumour cell line growth inhibition, 48 h
metric.name: TGI

// recorded TGI for COc1ccc(Cc2c(-c3ccc(C)cc3)n[nH]c(=O)c2C2C(=O)N(c3ccccc3)N=C2c2ccccc2)cc1 (stereo not given) : > 89.3 µM

// recorded TGI for CC(=O)/C(=C/n1ccc(=O)[nH]c1=S)C(=O)Nc1ccccc1C : > 100 µM

// recorded TGI for N#CC1C(=O)C(=O)N(c2ccccc2)C1=O (stereo not given) : > 100 µM

// recorded TGI for OC1c2[nH]c3ccccc3c2CCN2CCCCC12 (stereo not given) : > 100 µM

// recorded TGI for C(CCCCc1nnc(N2CCOCC2)o1)CCCc1nnc(N2CCOCC2)o1 : > 100 µM

// recorded TGI for C[C@]12CCC(=O)C[C@H]1CCC(O)[C@@H]2Br (stereo not given in full) : > 100 µM

// recorded TGI for O=C(CC1(O)C(=O)Nc2ccccc21)c1ccc2ccccc2c1 (stereo not given) : > 100 µM

// recorded TGI for COc1ccc(Nc2nc3cc(C(F)(F)F)ccc3n3cccc23)cc1OC : 28.7 µM

// recorded TGI for Nc1nc(N)c2ncn(-c3ccc(Br)cc3)c2n1 : > 100 µM

// recorded TGI for O=S(=O)(SCCCCSS(=O)(=O)c1ccc(Cl)cc1)c1ccc(Cl)cc1 : 29.5 µM

* * *

test system: SNB-19 CNS; experiment: NCI tumour cell line growth inhibition, 48 h
metric.name: TGI

Form field, TGI with SNB-19 CNS, item O=C(CCN1CCOCC1)c1ccc(Oc2ccc(F)cc2)cc1 : > 100 µM

Form field, TGI with SNB-19 CNS, item CC(C)OP(=O)(OC(C)C)c1ncc(-c2ccc(C(F)(F)F)cc2)c(NC2CCCCCC2)n1 : > 10 µM

Form field, TGI with SNB-19 CNS, item COc1cc([C@@H]2c3cc4c(c(O[C@@H]5O[C@H]6CO[C@@H](C)O[C@H]6[C@H](O)[C@@H]5O)c3C[C@H]3COC(=O)[C@@H]32)OCO4)cc(OC)c1O : > 100 µM

Form field, TGI with SNB-19 CNS, item COc1nc2c(nc(N)n2C2OC(CO)C(O)C(O)C2O)c(=O)[nH]1 (centres undefined) : > 100 µM

* * *

Exercise: for every item that follows, state its recorded TGI.
tested on: NCI-H460 lung; assay: NCI tumour cell line growth inhibition, 48 h
Respond numerically; units are µM and should not be typed.

Form field, TGI with NCI-H460 lung, item COc1ccc(OC)c2c1C=C[C@H](C1(C)SCCS1)C2C(C)=O (stereo partly specified) : 76.5

Form field, TGI with NCI-H460 lung, item NCCNC1=CC(=O)c2nc3ccccc3c3ccnc1c23 : 5.56

Form field, TGI with NCI-H460 lung, item O=C1CCCC/C1=C(\Br)I : 33

* * *

tested on: UO-31 renal; assay: NCI tumour cell line growth inhibition, 48 h
Exercise: for every item that follows, state its recorded TGI.

// recorded TGI for Cc1ccc(N2CN3OC(=O)N(c4ccccc4)[C@@]3(c3ccccc3)C2)cc1 : > 100 µM

// recorded TGI for [N-]=[N+]=NCC1OC(n2cnc3c(N)ncnc32)C2OC12 (stereo not given) : > 100 µM

// recorded TGI for CC(C)N(Cc1c(F)cccc1F)c1ccc(CO)c(Cl)c1 : 25 µM

// recorded TGI for COC(=O)[C@@]1(C)CCC[C@]2(C)[C@H]3Cc4occc4[C@H](C)[C@@H]3CC[C@@]12O : > 100 µM

// recorded TGI for CCCCCC(/C=C/[C@@H]1[C@H]2CC(=O)O[C@H]2C[C@H]1N1CCOCC1)OC1CCCO1 (stereo not given in full) : > 100 µM

// recorded TGI for CC(C)(Br)C(Br)CCC1(C(Br)CBr)CO1 (stereo not given) : > 10 µM

// recorded TGI for COC(=O)C(CCCCCCCC(C(=O)OC)c1nc2n(c1O)C(=N)N=N2)c1nc2n(c1O)C(=N)N=N2 (stereo not given) : > 100 µM

// recorded TGI for O=C(O)/C=C\C(=O)c1ccc(Cl)cc1 : 99.8 µM

// recorded TGI for Clc1ccccc1CN1COc2c(cc(Cl)c3cccnc23)C1 : 21.7 µM

// recorded TGI for O=C(O)CNS(=O)(=O)c1ccc(NC(=O)c2ccccc2[N+](=O)[O-])cc1 : > 100 µM

* * *

system: PC-3 prostate; assay: NCI tumour cell line growth inhibition, 48 h
Exercise: for every item that follows, state its recorded TGI.

// recorded TGI for CN(C)c1ccc(/C=C(\NC(=O)c2ccccc2)C(=O)Nc2ccccc2C(=O)NCc2ccccc2)cc1 : > 100 µM

// recorded TGI for COc1ccc([C@H]2CC(=O)C[C@H](c3ccc(OC)cc3OC)C23C(=O)c2ccccc2C3=O)c(OC)c1 : > 100 µM

// recorded TGI for O=C(O)C(F)(F)C(F)(F)C(F)(F)C(F)(F)C(F)(F)C(F)(F)C(F)(F)C(F)(F)F : > 100 µM

// recorded TGI for CC(C)(Br)C(Br)CCC1(C(Br)CBr)CO1 (stereo not given) : > 10 µM

// recorded TGI for COc1ccc(-c2nc(N3CCCC3)no2)cc1 : > 100 µM

* * *

test system: TK-10 renal; assay: NCI tumour cell line growth inhibition, 48 h
metric.name: TGI

// recorded TGI for O=C(Nc1sccc1S(=O)(=O)c1ccc(Cl)cc1)c1ccc(Cl)cc1 : > 100 µM

// recorded TGI for O=C(CCN1CCOCC1)c1ccc(Oc2ccc(F)cc2)cc1 : 32.5 µM

// recorded TGI for COc1ccc(-c2nc(N3CCCC3)no2)cc1 : > 100 µM

// recorded TGI for CN1C[C@@H](c2ccc(Cl)cc2)[C@]2(NC(=S)N(c3ccc(F)c(Cl)c3)C2=O)[C@@]12C(=O)NC1C=CC(Cl)=C[C@H]12 (stereo partly specified) : 8.06 µM

// recorded TGI for c1ccc2nc(-c3ccc4c(c3)OCO4)ccc2c1 : > 100 µM

// recorded TGI for CC1(c2ccccc2)CCN(C2CC2)CO1 (stereo unspecified) : 26.7 µM

// recorded TGI for COc1ccc(C2=C(c3cn(C)c4ccccc34)C(=O)OC2)cc1OC : > 100 µM

// recorded TGI for COP(=O)(OC)/C(=C/c1cn(C(C)=O)c2ccccc12)NC(C)=O : > 100 µM

// recorded TGI for Cc1ccc(-c2nc3cc(N4CCN(C)CC4)c(F)cc3[nH]2)cc1 : > 100 µM

// recorded TGI for N#C/C(=C1C=C/C(=N/O)C(Cl)=C/1)c1ccc(Cl)cc1 : 20.2 µM

// recorded TGI for COc1ccc2c(c1)c1c(C)c3cnccc3c(C)c1n2CCCN : 2.75 µM

// recorded TGI for COc1ccc(NC(=O)NS(=O)(=O)c2ccc(C)cc2)nn1 : > 100 µM

// recorded TGI for OC1CCCCCCCCCCC1SCCCCl (stereo unspecified) : > 100 µM

// recorded TGI for Oc1ccc[n+](Cc2ccccc2)c1 : > 100 µM

// recorded TGI for CCN(CC)CCNC(=O)c1cc2cc(NC(=O)c3cc4cc(N)ccc4[nH]3)ccc2[nH]1 : > 100 µM

// recorded TGI for CC(=O)/C(=C/n1ccc(=O)[nH]c1=S)C(=O)Nc1ccccc1C : > 100 µM

* * *

test system: M14 melanoma; assay: NCI tumour cell line growth inhibition, 48 h
Rule: TGI under 10 µM gives Criterion not met, otherwise Criterion met.

Test whether the molecule CC(C)(Br)C(Br)CCC1(C(Br)CBr)CO1 (configuration not stated) records TGI of 10 µM or higher. Criterion met

Test whether the molecule CC12c3c4cccc3Oc3cc(N)cc(c31)Oc1cc(N)cc(c12)O4 records TGI of 10 µM or higher. Criterion met

Test whether the molecule N#CCCC1(CCC#N)CCCCCCC(CCC#N)(CCC#N)C(=O)C1=O records TGI of 10 µM or higher. Criterion met

Test whether the molecule CC(=O)OC(C[C@H](C)[C@@H]1CC[C@]2(C)C3=CCC4C(C)(C)C(=O)CC[C@]4(C)C3CCC12C)C1OC1(C)C (some centres not stated) records TGI of 10 µM or higher. Criterion met

Test whether the molecule O=C1c2ccccc2C(=O)N1CCCC(=O)n1cc(F)c(=O)[nH]c1=O records TGI of 10 µM or higher. Criterion met

Test whether the molecule N#CCC(=O)N1CCCOCCC1 records TGI of 10 µM or higher. Criterion met

Test whether the molecule C=C1C(=O)O[C@@H]2[C@@H]3O[C@@H](C[C@@H]13)[C@](C)(O)CC/C=C(\C)CCC[C@H]2C records TGI of 10 µM or higher. Criterion not met

Test whether the molecule N#C/C(=C\Nc1ccccn1)C(=O)C1CC1 records TGI of 10 µM or higher. Criterion met

Test whether the molecule C(CCCCc1nnc(N2CCOCC2)o1)CCCc1nnc(N2CCOCC2)o1 records TGI of 10 µM or higher. Criterion met

Test whether the molecule NC(=O)c1c(Br)n(C2OC(CO)C(O)C2O)c2ncnc(N)c12 (configuration not stated) records TGI of 10 µM or higher. Criterion not met

Test whether the molecule O=C(CC1(O)C(=O)Nc2ccccc21)c1ccc2ccccc2c1 (configuration not stated) records TGI of 10 µM or higher. Criterion met

Test whether the molecule COc1ccc(Cc2c(-c3ccc(C)cc3)n[nH]c(=O)c2C2C(=O)N(c3ccccc3)N=C2c2ccccc2)cc1 (configuration not stated) records TGI of 10 µM or higher. Criterion met

Test whether the molecule O=C(O)C1CCC(=O)N1C(=O)C(Cl)c1ccccc1 (configuration not stated) records TGI of 10 µM or higher. Criterion met

Test whether the molecule CC(C)N(Cc1c(F)cccc1F)c1ccc(CO)c(Cl)c1 records TGI of 10 µM or higher. Criterion met

Test whether the molecule O=C1CCCC/C1=C(\Br)I records TGI of 10 µM or higher. Criterion met

Test whether the molecule CC1=NN(c2cccc(Cl)c2)C2(C1=Cc1ccccc1)C(Cl)C(=O)N2c1nc2ccccc2s1 (configuration not stated) records TGI of 10 µM or higher. Criterion met

Test whether the molecule O=C(O)CNS(=O)(=O)c1ccc(NC(=O)c2ccccc2[N+](=O)[O-])cc1 records TGI of 10 µM or higher. Criterion met

Test whether the molecule O=C(Nc1ccc(F)cc1F)c1cc(F)ccc1O records TGI of 10 µM or higher. Criterion met

Test whether the molecule O=C1C(Br)=C(C2=CC(=P(c3ccccc3)(c3ccccc3)c3ccccc3)C=C2)C(=O)C(Br)=C1C1=CC(=P(c2ccccc2)(c2ccccc2)c2ccccc2)C=C1 records TGI of 10 µM or higher. Criterion met

Test whether the molecule COc1ccc(-c2nc(N3CCCC3)no2)cc1 records TGI of 10 µM or higher. Criterion met

Test whether the molecule CCOC(=O)/C(=C/c1ccc(C(F)(F)F)cc1)N(CC)CC records TGI of 10 µM or higher. Criterion met

Test whether the molecule CCOC(=O)C(=Cc1ccccc1Cl)C(=O)OCC records TGI of 10 µM or higher. Criterion not met

Test whether the molecule CC[C@H](C)[C@H]1NC(=O)[C@@H](NC(=O)[C@@H](CC(C)C)N(C)C(=O)C2CCCN2C(=O)[C@H](C)O)[C@@H](C)OC(=O)[C@@H]2Cc3ccccc3CN2C(=O)[C@@H]2CCCN2C(=O)[C@H](CC(C)C)NC(=O)[C@@H](C)C(=O)[C@H](C(C)C)OC(=O)C[C@@H]1O (some centres not stated) records TGI of 10 µM or higher. Criterion met

Test whether the molecule COc1ccc(C2Oc3ccc(Cl)cc3C=C2[N+](=O)[O-])cc1OC (configuration not stated) records TGI of 10 µM or higher. Criterion not met

Test whether the molecule CC1(C)COP(=S)(c2ccccn2)O[C@@H]1c1ccccc1 (some centres not stated) records TGI of 10 µM or higher. Criterion met

Test whether the molecule Cc1nc2ccc(Cl)cc2c(Cl)c1CCCl records TGI of 10 µM or higher. Criterion met

Test whether the molecule O=[N+]([O-])c1cccc2nc3ccccc3c(NCCN(CCO)CCO)c12 records TGI of 10 µM or higher. Criterion not met

Test whether the molecule COC(=O)c1c(C)c2n(c1C)C(=O)C(c1ccccc1)=C2 records TGI of 10 µM or higher. Criterion met

Test whether the molecule Cc1ccc(Nc2nc3ccccc3c(=O)n2N)cc1 records TGI of 10 µM or higher. Criterion met

Test whether the molecule NC(=S)C1=C(N)Oc2c(c(=O)oc3ccccc23)C1c1ccc(Br)cc1 (configuration not stated) records TGI of 10 µM or higher. Criterion met

Test whether the molecule O=C1OCC(C#Cc2ccccc2)=C1Br records TGI of 10 µM or higher. Criterion met

Test whether the molecule CCCCCC(/C=C/[C@@H]1[C@H]2CC(=O)O[C@H]2C[C@H]1N1CCOCC1)OC1CCCO1 (some centres not stated) records TGI of 10 µM or higher. Criterion met

# credit: PubChem BioAssay (NCI)
